# growth listing for each entry below
Test system: HCT-116 colon
ASSAY_SUMMARY: NCI-60 one-dose screen, 48 h (100 = growth as untreated, 0 = no growth, -100 = all killed)
CONDITION_CONTEXT: 10 µM unless noted
This is part of a sample that, as a whole, favours compounds with a hit. Of some 83,000 tested, about 20% had one in any assay.
The reply should be a number in %, with the unit left off.

Reference set, count: 3
SMILES_NOTATION: CCOc1nc(-c2ccccc2)cc2c(O)c(-c3nnco3)[nH]c(=O)c12
growth [%]: 39.7
--
SMILES_NOTATION: Nc1nc(SCc2ccccc2Cl)c(-c2ccccc2)c(SCc2ccccc2Cl)n1
growth [%]: 82.2
--
SMILES_NOTATION: CCCCOc1ccc(C(C)(C)c2ccc(OCCCC)cc2)cc1
growth [%]: 95.8

q: Using HCT-116 colon as the test system, report measured growth of C[n+]1c2ccccc2c(NC2CCNCC2)c2[nH]c3ccccc3c21 .
a: 4.09

Value source: PubChem BioAssay (NCI)
